Consider the following compounds and their measured Biodistribution of radioactivity, Heart readings.
Assay: Ex vivo biodistribution in normal mice
Set-up: species or system ddY mice
Conditions: i.v., 30 min after injection, mean (SD), 5 animals

| COMPOUND | Biodistribution of radioactivity, Heart |
| --- | --- |
| CN(C)c1ccc(/C=C/c2ccc(C3=N[O][99Tc-]4(=[O])([NH]C(c5ccc(N(C)C)cc5)=N[O]4)[NH2+]3)cc2)cc1 (single isomer, unassigned) [[^99mTc]SB1A] | 2.98 (0.63) % injected dose per gram |
| CN(C)c1ccc(/C=C/c2ccc(C3=N[O][99Tc-]4(=[O])([NH]3)[NH2+]C(c3ccc(/C=C/c5ccc(N(C)C)cc5)cc3)=N[O]4)cc2)cc1 (single isomer, unassigned) [[^99mTc]SB2A] | 8.58 (1.32) % injected dose per gram |
| CN(C)c1ccc(C2=N[O][99Tc-]3(=[O])([NH]2)[NH2+]C(c2ccc4nc(-c5ccc(N(C)C)cc5)sc4c2)=N[O]3)cc1 [[^99mTc]BT1B] | 2.72 (0.28) % injected dose per gram |
| CN(C)c1ccc(-c2nc3ccc(C4=N[O][99Tc-]5(=[O])([NH]4)[NH2+]C(c4ccc6nc(-c7ccc(N(C)C)cc7)sc6c4)=N[O]5)cc3s2)cc1 [[^99mTc]BT2B] | 6.67 (1.52) % injected dose per gram |

* * *

Assay: Ex vivo biodistribution in normal mice
Design: species or system ddY mice
Conditions: i.v., 60 min after injection, mean (SD), 5 animals
Consider the following compounds and their measured Biodistribution of radioactivity, Pancreas readings.
MEASUREMENT LABEL: Biodistribution of radioactivity, Pancreas

| COMPOUND | MEAS VALUE |
| --- | --- |
| CN(C)c1ccc(/C=C/c2ccc(C3=N[O][99Tc-]4(=[O])([NH]C(c5ccc(N(C)C)cc5)=N[O]4)[NH2+]3)cc2)cc1 (single isomer, unassigned) [[^99mTc]SB1A] | 2.67 (0.07) % injected dose per gram |
| CN(C)c1ccc(C2=N[O][99Tc-]3(=[O])([NH]2)[NH2+]C(c2ccc4nc(-c5ccc(N(C)C)cc5)sc4c2)=N[O]3)cc1 [[^99mTc]BT1B] | 1.11 (0.18) % injected dose per gram |
| CN(C)c1ccc(/C=C/c2ccc(C3=N[O][99Tc-]4(=[O])([NH]3)[NH2+]C(c3ccc(/C=C/c5ccc(N(C)C)cc5)cc3)=N[O]4)cc2)cc1 (single isomer, unassigned) [[^99mTc]SB2A] | 1.83 (0.07) % injected dose per gram |
| CN(C)c1ccc(-c2nc3ccc(C4=N[O][99Tc-]5(=[O])([NH]4)[NH2+]C(c4ccc6nc(-c7ccc(N(C)C)cc7)sc6c4)=N[O]5)cc3s2)cc1 [[^99mTc]BT2B] | 1.27 (0.28) % injected dose per gram |

* * *

Test: Ex vivo biodistribution in normal mice
Set-up: species or system ddY mice
Conditions: i.v., 10 min after injection, mean (SD), 5 animals
MEASUREMENT LABEL: Biodistribution of radioactivity, Spleen

| COMPOUND | MEASUREMENT LABEL | MEAS VALUE |
| --- | --- | --- |
| CN(C)c1ccc(C2=N[O][99Tc-]3(=[O])([NH]2)[NH2+]C(c2ccc4nc(-c5ccc(N(C)C)cc5)sc4c2)=N[O]3)cc1 [[^99mTc]BT1B] | Biodistribution of radioactivity, Spleen | 3.00 (0.82) % injected dose per gram |
| CN(C)c1ccc(-c2nc3ccc(C4=N[O][99Tc-]5(=[O])([NH]4)[NH2+]C(c4ccc6nc(-c7ccc(N(C)C)cc7)sc6c4)=N[O]5)cc3s2)cc1 [[^99mTc]BT2B] | Biodistribution of radioactivity, Spleen | 14.49 (3.50) % injected dose per gram |
| CN(C)c1ccc(/C=C/c2ccc(C3=N[O][99Tc-]4(=[O])([NH]3)[NH2+]C(c3ccc(/C=C/c5ccc(N(C)C)cc5)cc3)=N[O]4)cc2)cc1 (single isomer, unassigned) [[^99mTc]SB2A] | Biodistribution of radioactivity, Spleen | 11.24 (2.26) % injected dose per gram |
| CN(C)c1ccc(/C=C/c2ccc(C3=N[O][99Tc-]4(=[O])([NH]C(c5ccc(N(C)C)cc5)=N[O]4)[NH2+]3)cc2)cc1 (single isomer, unassigned) [[^99mTc]SB1A] | Biodistribution of radioactivity, Spleen | 9.70 (3.03) % injected dose per gram |

* * *

Test: Ex vivo biodistribution in normal mice
Parameters: species or system ddY mice
Settings: i.v., 30 min after injection, mean (SD), 5 animals
MEASUREMENT LABEL: Biodistribution of radioactivity, Pancreas

| COMPOUND | MEAS VALUE |
| --- | --- |
| CN(C)c1ccc(/C=C/c2ccc(C3=N[O][99Tc-]4(=[O])([NH]3)[NH2+]C(c3ccc(/C=C/c5ccc(N(C)C)cc5)cc3)=N[O]4)cc2)cc1 (single isomer, unassigned) [[^99mTc]SB2A] | 2.06 (0.11) % injected dose per gram |
| CN(C)c1ccc(-c2nc3ccc(C4=N[O][99Tc-]5(=[O])([NH]4)[NH2+]C(c4ccc6nc(-c7ccc(N(C)C)cc7)sc6c4)=N[O]5)cc3s2)cc1 [[^99mTc]BT2B] | 1.14 (0.25) % injected dose per gram |
| CN(C)c1ccc(C2=N[O][99Tc-]3(=[O])([NH]2)[NH2+]C(c2ccc4nc(-c5ccc(N(C)C)cc5)sc4c2)=N[O]3)cc1 [[^99mTc]BT1B] | 1.72 (0.11) % injected dose per gram |
| CN(C)c1ccc(/C=C/c2ccc(C3=N[O][99Tc-]4(=[O])([NH]C(c5ccc(N(C)C)cc5)=N[O]4)[NH2+]3)cc2)cc1 (single isomer, unassigned) [[^99mTc]SB1A] | 1.74 (0.33) % injected dose per gram |

* * *

Experiment: Ex vivo biodistribution in normal mice
Parameters: species or system ddY mice
Details: i.v., 30 min after injection, mean (SD), 5 animals
Consider the following molecules and their measured Biodistribution of radioactivity, Kidney readings.

| MOLECULE | Biodistribution of radioactivity, Kidney |
| --- | --- |
| CN(C)c1ccc(/C=C/c2ccc(C3=N[O][99Tc-]4(=[O])([NH]C(c5ccc(N(C)C)cc5)=N[O]4)[NH2+]3)cc2)cc1 (single isomer, unassigned) [[^99mTc]SB1A] | 6.18 (0.84) % injected dose per gram |
| CN(C)c1ccc(C2=N[O][99Tc-]3(=[O])([NH]2)[NH2+]C(c2ccc4nc(-c5ccc(N(C)C)cc5)sc4c2)=N[O]3)cc1 [[^99mTc]BT1B] | 5.24 (0.59) % injected dose per gram |
| CN(C)c1ccc(/C=C/c2ccc(C3=N[O][99Tc-]4(=[O])([NH]3)[NH2+]C(c3ccc(/C=C/c5ccc(N(C)C)cc5)cc3)=N[O]4)cc2)cc1 (single isomer, unassigned) [[^99mTc]SB2A] | 3.61 (0.29) % injected dose per gram |
| CN(C)c1ccc(-c2nc3ccc(C4=N[O][99Tc-]5(=[O])([NH]4)[NH2+]C(c4ccc6nc(-c7ccc(N(C)C)cc7)sc6c4)=N[O]5)cc3s2)cc1 [[^99mTc]BT2B] | 3.47 (0.57) % injected dose per gram |

* * *

Test: Ex vivo biodistribution in normal mice
Parameters: species or system ddY mice
Conditions: i.v., 10 min after injection, mean (SD), 5 animals
Consider the following molecules and their measured Biodistribution of radioactivity, Heart readings.

| MOLECULE | Biodistribution of radioactivity, Heart |
| --- | --- |
| CN(C)c1ccc(-c2nc3ccc(C4=N[O][99Tc-]5(=[O])([NH]4)[NH2+]C(c4ccc6nc(-c7ccc(N(C)C)cc7)sc6c4)=N[O]5)cc3s2)cc1 [[^99mTc]BT2B] | 8.62 (2.34) % injected dose per gram |
| CN(C)c1ccc(C2=N[O][99Tc-]3(=[O])([NH]2)[NH2+]C(c2ccc4nc(-c5ccc(N(C)C)cc5)sc4c2)=N[O]3)cc1 [[^99mTc]BT1B] | 3.30 (1.02) % injected dose per gram |
| CN(C)c1ccc(/C=C/c2ccc(C3=N[O][99Tc-]4(=[O])([NH]C(c5ccc(N(C)C)cc5)=N[O]4)[NH2+]3)cc2)cc1 (single isomer, unassigned) [[^99mTc]SB1A] | 6.51 (0.77) % injected dose per gram |
| CN(C)c1ccc(/C=C/c2ccc(C3=N[O][99Tc-]4(=[O])([NH]3)[NH2+]C(c3ccc(/C=C/c5ccc(N(C)C)cc5)cc3)=N[O]4)cc2)cc1 (single isomer, unassigned) [[^99mTc]SB2A] | 6.57 (0.92) % injected dose per gram |

* * *

Assay: Ex vivo biodistribution in normal mice
Parameters: species or system ddY mice
Details: i.v., 2 min after injection, mean (SD), 5 animals
MEASUREMENT LABEL: Biodistribution of radioactivity, Heart

| COMPOUND | MEAS VALUE |
| --- | --- |
| CN(C)c1ccc(/C=C/c2ccc(C3=N[O][99Tc-]4(=[O])([NH]3)[NH2+]C(c3ccc(/C=C/c5ccc(N(C)C)cc5)cc3)=N[O]4)cc2)cc1 (single isomer, unassigned) [[^99mTc]SB2A] | 12.64 (1.59) % injected dose per gram |
| CN(C)c1ccc(C2=N[O][99Tc-]3(=[O])([NH]2)[NH2+]C(c2ccc4nc(-c5ccc(N(C)C)cc5)sc4c2)=N[O]3)cc1 [[^99mTc]BT1B] | 5.25 (0.22) % injected dose per gram |
| CN(C)c1ccc(-c2nc3ccc(C4=N[O][99Tc-]5(=[O])([NH]4)[NH2+]C(c4ccc6nc(-c7ccc(N(C)C)cc7)sc6c4)=N[O]5)cc3s2)cc1 [[^99mTc]BT2B] | 9.48 (4.83) % injected dose per gram |
| CN(C)c1ccc(/C=C/c2ccc(C3=N[O][99Tc-]4(=[O])([NH]C(c5ccc(N(C)C)cc5)=N[O]4)[NH2+]3)cc2)cc1 (single isomer, unassigned) [[^99mTc]SB1A] | 9.48 (2.01) % injected dose per gram |
